- Tested on: Candida albicans
- condition notes: 20 µM
- Description: Antifungal activity against Candida albicans ATCC 90028 (CO-ADD:FG_001); MIC in YNB media using NBS plates, by OD630
Measured potencies and affinities stand elsewhere.
measured endpoint: Inhibition
State the value with its unit after it.

// known answers, use as guide
{"compound": "c1ccc2c(c1)-c1cccc3cncc-2c13", "measured endpoint": "Inhibition", "value observed": "12.2%"}
{"compound": "CC(=O)n1cc(C2CC(=O)OC3=C2CC(=O)C(C)(C)C3)c2ccccc21 (stereo unspecified)", "measured endpoint": "Inhibition", "value observed": "2.8%"}
{"compound": "CCOC(=O)c1cc2c(OC)c(OC)ccc2c2ncc(C#N)c(O)c12", "measured endpoint": "Inhibition", "value observed": "5.12%"}
{"compound": "O=C1Nc2ccccc2C1(c1ccc(O)cc1)c1ccc(O)cc1", "measured endpoint": "Inhibition", "value observed": "2.96%"}
{"compound": "C#CCNc1ccc(C(=O)OCC)cc1", "measured endpoint": "Inhibition", "value observed": "5%"}

For each of the compounds below, state Inhibition.
1. Cc1ccc(/C=C2\CCOC2=O)cc1
2. NS(=O)(=O)c1ccc(/N=N/c2c(O)c(C(=O)O)cc3ccccc23)cc1
3. Cc1nnc2nc(-c3ccccc3)nc(-c3ccccc3)n12

11.6%
-3.08%
4.58%
